# TEST_SUMMARY: Cytotoxicity assay (CellTiter-Glo, 72 h), SKOV-3
# Assay type: cell-based, human
# CONDITION_LABEL: human, SKOV-3 cells (ovarian adenocarcinoma), conc 0.00152588 uM; raw replicate data; read-out: SKOV3 viability (%)
RESULT_TYPE: viability at 72 h, 0.00152588 uM
The number alone won't do; follow it with the unit.

Below: 3 molecules and their reported viability at 72 h, 0.00152588 uM.
>>> value_measured("COC1CC2CCC(C)C(O)(O2)C(=O)C(=O)N2CCCCC2C(=O)OC(C(C)CC2CCC(O)C(OC)C2)CCC(C)C=C(C)C(O)C(OC)C(=O)C(C)CC(C)C=CC=CC=C1C (stereo not drawn)")
"77.3%"
>>> value_measured("CO[C@@H]1/C=C/C=C/[C@@H](C)C[C@@H](C)C(=O)C[C@H](O)/C(C)=C/[C@@H](C)C(=O)C[C@@H]([C@H](C)C[C@@H]2CC[C@@H](O)[C@H](OC)C2)OC(=O)[C@@H]2CCCCN2C(=O)C(=O)[C@]2(O)O[C@@H](CC[C@H]2C)C1")
"102%"
>>> value_measured("COC1CC2CCC(C)C(O)(O2)C(=O)C(=O)N2CCCCC2C(=O)OC(C(C)CC2CCC(O)C(OC)C2)CC(O)CC(=O)C(C)C=C(C)C(O)CC(=O)C(C)CC(C)C=CC=CC=C1C (stereo not drawn)")
"106%"

Ask | Fill in: viability at 72 h, 0.00152588 uM of CO[C@H]1C[C@@H]2CC[C@@H](C)[C@@](O)(O2)C(=O)C(=O)N2CCCC[C@H]2C(=O)O[C@H]([C@H](C)C[C@@H]2CC[C@@H](O)[C@H](OC)C2)CC(=O)[C@H](C)/C=C(\C)[C@@H](O)[C@@H](OC)C(=O)[C@H](C)C[C@H](C)/C=C/C=C/C=C/1C [Compound 1, rapamycin, reference compound] is ___
Reply | 110%

Ask | Fill in: viability at 72 h, 0.00152588 uM of CO[C@@H]1C[C@H](C[C@@H](C)[C@@H]2CC(=O)[C@H](C)/C=C(\C)[C@@H](O)[C@@H](OC)C(=O)[C@H](C)C[C@H](C)/C=C/C=C/C=C(\C)[C@H](O)C[C@@H]3CC[C@@H](C)[C@@](O)(O3)C(=O)C(=O)N3CCCC[C@H]3C(=O)O2)CC[C@H]1O [Compound 17, (16R)-16-O-demethyl rapamycin] is ___
Reply | 108%

Ask | Fill in: viability at 72 h, 0.00152588 uM of `CO[C@H]1C[C@@H]2CC[C@@H](C)[C@@](O)(O2)C(=O)C(=O)N2CCCC[C@H]2C(=O)O[C@H]([C@H](C)C[C@@H]2CC[C@@H](O)[C@H](OC)C2)CC(=O)[C@H](C)/C=C(\C)[C@@H](O)CC(=O)[C@H](C)C[C@H](C)/C=C/C=C(C)/C=C/1C` is ___
Reply | 106%

Ask | Fill in: viability at 72 h, 0.00152588 uM of `CO[C@H]1C[C@@H]2CC[C@@H](C)[C@@](O)(O2)C(=O)C(=O)N2CCCC[C@H]2C(=O)O[C@H]([C@H](C)C[C@@H]2CC[C@@H](O)[C@H](OC)C2)CC(=O)[C@H](C)/C=C(\C)[C@@H](O)CC[C@H](C)/C=C/C=C/C=C/1C` is ___
Reply | 101%

Ask | Fill in: viability at 72 h, 0.00152588 uM of COC1CC2CCC(C)C(O)(O2)C(=O)C(=O)N2CCCCC2C(=O)OC(C(C)CC2CCC(O)C(OC)C2)CC(=O)C(C)C=C(C)C(O)CC(=O)C(C)C=C(C)C=CC=CC=C1C (stereo not drawn) is ___
Reply | 97.9%

Ask | Fill in: viability at 72 h, 0.00152588 uM of COC1CC2CCC(C)C(O)(O2)C(=O)C(=O)N2CCCCC2C(=O)OC(C(C)CC2CCC(O)C(OC)C2)CC(=O)C(C)C=C(C)C(O)C(OC)C(=O)C(C)CC(C)C=CCCC=C1C (stereo not drawn) is ___
Reply | 105%

Hello, the source for this data is paper PMC7419507, in case you need it.
